These measurements were taken from PubChem BioAssay (NCI).

System: NCI-H23 lung
Assay: NCI-60 one-dose screen, 48 h (100 = growth as untreated, 0 = no growth, -100 = all killed)
Conditions: 10 µM unless noted
Description: Growth inhibition of the NCI-H23 human Non-Small Cell Lung tumor cell line is measured as a screen for anti-cancer activity. Cells are grown in 96 well plates and exposed to the test compound for 48 hours. Compounds are tested at a single concentration, which is 10^-5 M for most compounds. The reported endpoint is percent growth (GI% or GIPRCNT), where numbers from 0 - 100% represent growth inhibition, and numbers from -100% - 0 represent cell death. […]
About 83,000 compounds went through this panel and 20% of them were active in at least one assay; those are over-represented in the sample as a whole.
I'd appreciate it if you could supply growth values for the items below.
Give bare numbers, in %.

Example results:
CC1=NCC2NC(=O)NC(C)=C12 (configuration not stated)	103
O=C1/C=C/[C@@H](O)[C@@H]2C[C@@H](O)C[C@H]2/C=C/CCCCO1	13
O=C(Nc1ccc(Br)cc1F)c1cc(F)ccc1O	3.95

Give growth for all compounds that follow.
1. FC(F)(F)c1cccc(Nc2nc(-c3ccccc3)nc3ncccc23)c1
2. CCC1=C[C@]2(C3CC(=O)N(c4ccccc4)C3=O)CC(C(C)(C)C)C[C@@H]2[C@@H]2C(=O)N(c3ccccc3)C(=O)[C@H]12 (some centres not stated)

# output
1: 89.9; 2: 95.2

Give growth for all compounds that follow.
1. CC/C=C\C[C@H](O)C/C=C1/C(=O)C=C[C@@H]1C/C=C\CCCC(=O)OCCS(=O)(=O)c1ccccc1
2. COc1cc(C(=O)NN=C2c3ccccc3-c3ccccc32)cc(OC)c1OC

# output
[59, 62]
